Cited source: patent US11359200B2

System: H929 cells
Assay: Cell viability assay, bortezomib with or without MALAT1 knockdown
Type: cell-based
Settings: Homo sapiens, NCI-H929, H929 cells, control (before MALAT1 knockdown)
Description: For anti-MALAT1 transfection and ABT-888 (Santa Cruz Biotechnology Inc) or bortezomib (MilliporeSigma) treatment, MM cells were seeded on 12-well plates at a concentration of 5×10^5 cells/mL. […] MM cell lines (MM.1S, H929 and RPMI8226) and drug resistant MM cell lines (RPMI8226/LR5, RPMI8226/DOX40 and RPMI8226/V10R) were treated with anti-MALAT1 oligos for 24 hours. […] The half maximal inhibitory concentration (IC50) was calculated by Graphpad Prism V5.0.
observed property: IC50

Q. State the recorded IC50 for this entry: CC(C)C[C@H](NC(=O)[C@H](Cc1ccccc1)NC(=O)c1cnccn1)B(O)O [bortezomib]
A. 4.9 nM

----------
System: RPMI8226/LR5 cells
Assay: Cell viability assay, melphalan-resistant cells
Assay type: cell-based
Conditions: Homo sapiens, RPMI-8226, 72 h, transfected with 1 nM anti-MALAT1, 72 hours
observed property: IC50 (µM)
Number only, in µM; omit the unit.

Q. // map N[C@@H](Cc1ccc(N(CCCl)CCCl)cc1)C(=O)O to recorded IC50 (system: RPMI8226/LR5 cells)
A. 34

----------
Test system: RPMI8226/LR5 cells
Assay: Cell viability assay, melphalan-resistant cells
Type: cell-based
Settings: Homo sapiens, RPMI-8226, 72 h, control oligos, 72 hours
Protocol: For the drug resistant cells, RPMI8226/DOX40, RPMI8226/LR5 and RPMI8226/V10R cells were transfected with 1 nM control or anti-MALAT1 oligos separately for 24 hours and treated with a gradient concentration of doxorubicin for RPMI8226/DOX40, or melphalan for RPMI8226/LR5, or bortezomib for RPMI8226/V10R for 72 hours. Cell were subjected to qRT-PCR, proliferation and apoptosis assays. […]
observed property: IC50 (µM)
Please give a number only; it is taken to be in µM.

Q. Sample N[C@@H](Cc1ccc(N(CCCl)CCCl)cc1)C(=O)O — what was its IC50?
A. 53.4
